targetUnderTest: RSV prefusion F (preF), subtype B (respiratory syncytial virus, subtype B)
measurementProtocol: BLI, IgG
Kd: recorded values
Use nM as the unit, but write only the number.

binder	Kd / nM
ADI-20981 (antibody, V domains shown) VH: QVQLQESGPRLVKPSETLSLTCTVSGDSISSRNYFWAWIRQPPGKGLEWIGTIYYSGNTYSNPSLKSRVTISVDTSKKQFSLNLSSVTAADTAVYYCARGAYGGDAFDIWGQGTVVTVSS VL: DIRVTQSPSSVSASVGDRVTITCRASQGIGTWLAWYQQKPGKAPHLLIYAASRLQSGVPSRFSGSGSGTDFTLSISSLHPEDFATYYCQQAYAFPRTFGQGTKVEIK	2.14

Field: next binder
Determine its reported Kd: ADI-21007 (antibody, V domains shown) VH: QVQLVQSGADVKKPGASVKVSCKSSGYTFSNHSMHWVRQAPGQGLEWMGRIHPSSGTTTYAQKFQGRVTMTRDTSTSTVYMEVSSLRSEDTAVYYCARSPFFDFDFWGQGTMVTVSS VL: SYVLTQPHSVSESPGKTVTISCTRSSGSIASNYVQWYQQRPGSAPTSVIYEDNQRPSGVPDRFSGSIDSTSNSASLTISGLKTEDEADYYCQSYYSSGWVFGGGTKLTVL 1.72
